Experiment: soluble fraction after stress (log2 fold change); higher = more stays soluble; pooled small domains, quantitative proteomics
Settings: stress: 50 degC
Assign class by soluble fraction (log2): not lower than 0.005 means y; lower than 0.005 means n.

As a guide, the following entries are already answered.
HMRSTIYEFTVPPGQLESIRLDVYITSFVENATRSKVQEAIKQGYVWVNGKHEKASYTMLPGDKIYIELPI    n
HMTGNWRQMHKVKSKETIYGIAKEYGITVDELTKANPGMEAPGYTLKKGDYIFIPYATADANV    y
HMKQISNTDELESMAKNIIQENPDQVSKFKNGNEKLFGWFVGQMMKSTGGTANPKVVNEILKNLLN    y
HMGLQRLTVSPEDAGVRIDKYLAEQLPDITRSYLQKLLKDGSVQMNGKPVKASTKTAVGAVIALTIPEP    y
HMFMKNTEVALAIKGKFSNQTTITSKELVLFLSDLFPELSNKTIPWKINQLKAENLIYQTGRGIYTFN    n

Exam item: In plain terms: is recorded soluble fraction (log2) at least 0.005 for HMNQEFRMPNAIKGVELSEENKQQLTQGEKVFLEGMTSAKGSLFDAYVYIDQEKKTLAFDFPEK ?
Marked response: y

Exam item: Test whether the sequence HMQGIPVTVTAERANLRSGPGTSFDKLGQVVQGDVLTLLEVQNDWYKVKTAEGKTAFVAAYLVNSP records soluble fraction (log2) of 0.005 or higher.
Marked response: y

Exam item: Identify whether the reported soluble fraction (log2) of the following sequence is 0.005 or greater: HMNKVDEEKNAELVSTIQNKFSDVSAATKKKVKAFMAEHDIPNFKNADEIPTANLEAIVAMLNED
Marked response: y

Exam item: Can HMPRTEILMVDEEMEGERLDAFVAEQLDELSRSLVKTLIENGEIRVDGKQQKPSYRLKAGEEIIVEIPA be said to have soluble fraction (log2) at or above 0.005?
Marked response: y

Exam item: Can HMAPFVIQQGQDVRLISKGPGFAVSNDGKALTNAAEGQLARARTANGQTVSGIARQGGIIEIA be said to have soluble fraction (log2) at or above 0.005?
Marked response: n

Exam item: Reported soluble fraction (log2) reaches at least 0.005 for HMLENSLDHIEGIGPKTKDTLLTYFKSVSKIKSANPSILAELIGAAKTKILLAAFEKEKTTS ?
Marked response: n

Exam item: API: above_or_equal(metric=soluble fraction (log2), cutoff=0.005) for item HMSNETKSAILNFAEKHHDFNIDDLFESLSKSMDINRSSLLWHLFKLVNSNVLIRTGRGMYAKV
Marked response: n

Exam item: Determine whether this sequence has soluble fraction (log2) no lower than 0.005: HMSDRLRPGDMVVVVGKKKRYPVFSAFDIDFVEAGDVGKVLTVKREEVVVGFPKKGEGTFTPSELNIAH
Marked response: n

Exam item: For this sequence, is measured soluble fraction (log2) 0.005 or higher? HMVDLEINGRQTLQFVANKYGIPVEKLATDLNIPSDRFGEKLGRLRRQYAFTMNDVRKSILKNK
Marked response: y

Exam item: Reported soluble fraction (log2) at or above 0.005? HMLRMTRNRQKLVEVLMESGRPLSADEIREAAGFASTDLVTVYRNLEAFQSAGLLQRIPLENGSQLFELT
Marked response: n

Exam item: Determine whether this sequence has soluble fraction (log2) no lower than 0.005: HMGIGSTLTDGVRVYASDDEIVVNAPAESDVRIFNAGGAQLYAGRVADVRVAVAKGLYVVTVDGRSTKITV
Marked response: n

Exam item: For this sequence, is measured soluble fraction (log2) 0.005 or higher? HMKALYNLDYEKPLSGSYYTETTARAAVPTDIRKLGLIITYKTDATTNITEQFVGSSISAWTTSGNWKSLG
Marked response: n

Exam item: Given HMDNIEIGNRIREIRIKKNISVFELAYRTKTSQSHIYQIEGGSQNMSIELLFKIADTLETDPNTILGV , state whether its soluble fraction (log2) is at least 0.005.
Marked response: n
